Reference for the values: PubChem BioAssay

test system: Hepatitis C virus NS3 helicase; test: HCV NS3 helicase inhibitors, primary screen, biochemical, fluorescence polarization, LOPAC1280 library (AID 687035); settings: Purified HCV NS3 helicase, Cy5-dT15 ssDNA binding fluorescence polarization; active compounds read high; concentration not given here
Reported inhibition by item:
Please state the figure in %; there is no need to write the unit.

Reference set, count: 4
mol=CCCCC[C@H](CC(=O)NO)C(=O)N[C@H](C(=O)N1CCC[C@H]1CO)C(C)C reported_metric=inhibition units_symbol=% reading=0
mol=O=S(=O)(c1cccc2c(Cl)cccc12)N1CCCNCC1 reported_metric=inhibition units_symbol=% reading=-2
mol=Cc1cccc(C#Cc2ccccc2)n1 reported_metric=inhibition units_symbol=% reading=-1
mol=S=C(S)N1CCCC1 reported_metric=inhibition units_symbol=% reading=-2

Proceeding to the next molecule to report its inhibition.
Value sought: inhibition, system Hepatitis C virus NS3 helicase, item Oc1cc(O)cc(/C=C/c2ccc(O)c(O)c2)c1 . Result: -6
